# Target desc: FAD-linked sulfhydryl oxidase ALR (Homo sapiens)
# Assay method text: ALR-catalysed DTT oxidation blockers – biochemical, H2O2 detection, HRP-luminol luminescence, single point, primary screen (AID 485317)
# Measurement parameters: purified ALR, concentration not given here
Out of some 290,000 compounds screened, about 11,000 (3.8%) were called active.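 How the source made its calls: active means mean replicate inhibition above about 79%, with every replicate also reaching it (limit read from the data); inconclusive means only one of the two criteria met; inactive means mean below limit and not every replicate reaching it.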 The sample holds actives, similar compounds and a random draw of the others, so the mix is not that of the screen.
Allowed answers: active, inactive

Example entries and their recorded answers appear below.
{"columns": ["Compound", "Group label"],
 "data": [
  ["Cc1ccc(C(=O)N/C(=C/c2cccs2)C(=O)N2CCCCC2)cc1", "active"],
  ["COc1ccc(C(c2nnnn2Cc2cccs2)N2CCN(c3ccccc3)CC2)cc1OC (stereo unspecified)", "inactive"],
  ["Cc1cc(N2CCN(c3ccccc3)CC2)nc(N2CCOCC2)n1", "active"],
  ["Cc1ccc(C)c(NC(=O)CN(C)C(=O)COc2ccc3ccccc3c2)c1", "inactive"],
  ["CCN(CC)CCn1c2c(c(SCC(=O)Nc3ccc(C(C)C)cc3)nc1=O)CCC2", "inactive"]
]}

Ask | Outcome logged for `CC(C)(C)OC(=O)C[C@@H]1C/C=C\C[C@@H](CC(=O)N[C@H](CO)Cc2ccccc2)C(=O)NCCOC1=O` in this assay:
Reply | inactive

Ask | Hi, sorry to bother you, what did the test record for COc1ccccc1C(c1nnnn1CC1CCCO1)N1CCN(c2ccccc2)CC1 (stereo unspecified) ?
Reply | active

Ask | // return assay outcome for `CCN(CC)CCn1c2c(c(SCC(=O)Nc3nc4ccccc4s3)nc1=O)CCCC2`
Reply | active
